biological target: MAGI3_2, Q5TCQ9; experiment: holdup assay; parameters: key: below the threshold = too weak to quantify, mostly under pKd 3.1 to 4; details: plain residues with an end cap or a label only (N-terminal biotin on a linker: ttds)
Sequence (Q5TCQ9 398-503): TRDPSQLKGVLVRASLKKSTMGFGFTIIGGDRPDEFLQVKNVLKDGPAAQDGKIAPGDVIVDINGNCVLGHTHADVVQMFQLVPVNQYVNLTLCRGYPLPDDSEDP
property_label: pKd
Lab note: record the figure alone, no unit after it.

binder="GQDSREETQL [KCNT2, Q6UVM3]" recorded_value=3.91

Param item = VLRLQSETSV [VANGL1, Q8TAA9] ; retrieve measured pKd.
5.14

Fill blank: measured pKd of the binder STLTIFETAL [ABCC4, O15439] is ____.
4

I would be grateful if you could share the reported pKd for SVWLRKETRV [CYSLTR2, Q9NS75] .
5.75
